Target: HMG-CoA reductase (Homo sapiens, UniProt P04035)
Construct: endogenous in cells; host or cells: HepG2 (Korea Cell Line Bank)
Sequence (P04035 1-888): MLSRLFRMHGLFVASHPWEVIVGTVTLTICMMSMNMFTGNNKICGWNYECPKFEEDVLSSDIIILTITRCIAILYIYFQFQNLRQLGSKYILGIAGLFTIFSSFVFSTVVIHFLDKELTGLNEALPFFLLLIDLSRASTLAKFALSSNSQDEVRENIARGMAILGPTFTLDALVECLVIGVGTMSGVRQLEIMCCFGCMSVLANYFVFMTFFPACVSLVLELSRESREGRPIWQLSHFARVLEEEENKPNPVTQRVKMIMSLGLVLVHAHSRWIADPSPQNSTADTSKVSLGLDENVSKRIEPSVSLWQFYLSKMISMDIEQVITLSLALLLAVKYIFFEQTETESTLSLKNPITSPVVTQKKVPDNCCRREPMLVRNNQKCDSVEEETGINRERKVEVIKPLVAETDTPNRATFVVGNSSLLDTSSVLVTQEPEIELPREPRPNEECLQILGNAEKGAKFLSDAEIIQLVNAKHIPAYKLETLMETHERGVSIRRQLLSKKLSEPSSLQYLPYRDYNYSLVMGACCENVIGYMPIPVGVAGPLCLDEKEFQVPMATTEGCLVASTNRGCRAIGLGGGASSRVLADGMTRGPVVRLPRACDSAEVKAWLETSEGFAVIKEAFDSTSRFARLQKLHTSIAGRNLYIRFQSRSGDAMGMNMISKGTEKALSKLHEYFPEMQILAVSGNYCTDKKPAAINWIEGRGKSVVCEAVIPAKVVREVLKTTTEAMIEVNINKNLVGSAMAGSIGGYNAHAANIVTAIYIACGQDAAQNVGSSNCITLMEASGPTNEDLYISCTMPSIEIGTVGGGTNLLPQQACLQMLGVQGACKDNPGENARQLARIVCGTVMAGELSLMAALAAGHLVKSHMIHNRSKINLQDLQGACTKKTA
Assay: HMG-CoA reductase (HMGCR) degradation in HepG2 cells by western blotting
Type: cell-based
Conditions: treated for 18 hours, ratio of HMG-CoA reductase to GAPDH, read-out: DC50
Catalogue of molecules with associated DC50

Past entries and their recorded results:
>>> endpoint_value("C[C@H]1C=C2C=C[C@H](C)[C@H](CC[C@@H]3C[C@@H](O)CC(=O)O3)[C@H]2[C@@H](OC(=O)C(C)(C)CCC(=O)NCCOCCOCCOCCOCCOCCNc2cccc3c2C(=O)N(C2CCC(=O)NC2=O)C3=O)C1 (stereo partly drawn)")
"< 50 nM"
>>> endpoint_value("C[C@H]1C=C2C=C[C@H](C)[C@H](CC[C@@H]3C[C@@H](O)CC(=O)O3)[C@H]2[C@@H](OC(=O)NCCCCOCCCCNc2cccc3c2C(=O)N(C2CCC(=O)NC2=O)C3=O)C1 (stereo partly drawn)")
"< 50 nM"

Problem: Tell me reported DC50 for `C[C@H]1C=C2C=C[C@H](C)[C@H](CC[C@H]3C[C@H](O)CC(=O)O3)[C@H]2[C@@H](OC(=O)NCCOCCOCCOCC(=O)NCC(C)(C)C)C1` , tested with HMG-CoA reductase (Homo sapiens, UniProt P04035).
Solution: > 500 nM

---

// reported DC50 for each item listed
Target: HMG-CoA reductase (Homo sapiens, UniProt P04035)
Construct: endogenous in cells; host or cells: HepG2 (Korea Cell Line Bank)
Assay: HMG-CoA reductase (HMGCR) degradation in HepG2 cells by western blotting
Assay type: cell-based
Settings: treated for 18 hours, ratio of HMG-CoA reductase to GAPDH, read-out: DC50

>>> endpoint_value("CN[C@@H](C)C(=O)N[C@H](C(=O)N1CCC[C@H]1c1nc(C(=O)c2cccc(OCCOCCOCCNC(=O)O[C@H]3C[C@@H](C)C=C4C=C[C@H](C)[C@H](CC[C@@H]5C[C@@H](O[Si](C)(C)C(C)(C)C)CC(=O)O5)[C@H]43)c2)cs1)C1CCCCC1 [Compound 36]")
"< 50 nM"
>>> endpoint_value("C[C@H]1C=C2C=C[C@H](C)[C@H](CC[C@@H]3C[C@@H](O[Si](C)(C)C(C)(C)C)CC(=O)O3)[C@H]2[C@@H](OC(=O)NCCCOCCCCNc2cccc3c2C(=O)N(C2CCC(=O)NC2=O)C3=O)C1 (stereo partly shown) [Compound 120]")
"50 to 500 nM"
>>> endpoint_value("C[C@H]1C=C2C=C[C@H](C)[C@H](CC[C@@H]3C[C@@H](O)CC(=O)O3)[C@H]2[C@@H](OC(=O)NCCCCCNc2cccc3c2C(=O)N(C2CCC(=O)NC2=O)C3=O)C1 (stereo partly shown) [Compound 58]")
"50 to 500 nM"
>>> endpoint_value("C[C@H]1C=C2C=C[C@H](C)[C@H](CC[C@@H]3C[C@@H](O)CC(=O)O3)[C@H]2[C@@H](OC(=O)NCCOCCOCCNc2cccc3c2CN(C2CCC(=O)NC2=O)C3=O)C1 (stereo partly shown) [Compound 66]")
"< 50 nM"
>>> endpoint_value("C[C@H]1C=C2C=C[C@H](C)[C@H](CC[C@@H]3C[C@@H](O[Si](C)(C)C(C)(C)C)CC(=O)O3)[C@H]2[C@@H](OC(=O)NCCOCCCOCCNc2cccc3c2C(=O)N(C2CCC(=O)NC2=O)C3=O)C1 (stereo partly shown) [Compound 90]")
"< 50 nM"

Problem: Name the recorded DC50 for Cc1ncsc1-c1ccc(CNC(=O)[C@@H]2C[C@@H](O)CN2C(=O)[C@@H](NC(=O)C2(F)CC2)C(C)(C)C)c(OCCCCCCCCNC(=O)O[C@H]2C[C@@H](C)C=C3C=C[C@H](C)[C@H](CC[C@@H]4C[C@@H](O)CC(=O)O4)[C@H]32)c1 [Compound 165] .
Solution: < 50 nM

Problem: Fill blank: measured DC50 of the compound C[C@H]1C=C2C=C[C@H](C)[C@H](CC[C@@H]3C[C@@H](O[Si](C)(C)C(C)(C)C)CC(=O)O3)[C@H]2[C@@H](OC(=O)N(C)CCOCCOCCNc2cccc3c2C(=O)N(C2CCC(=O)NC2=O)C3=O)C1 (stereo partly shown) [Compound 82] is ____.
Solution: < 50 nM
